Target: Androgen receptor (Homo sapiens)
Experiment: qHTS assay to identify small molecule antagonists of the androgen receptor (AR) signaling pathway (AID 743035); further: on the % scale 0 is the no-effect control and ±100 the full control effect
Conditions: HEK293 AR-UAS-bla, R1881-stimulated, beta-lactamase FRET, 16 h; series mostly up to 58.5 µM
Text: National Center for Advancing Translational Sciences [NCATS] NIH Chemical Genomics Center [NCGC] U.S. Environmental Protection Agency [EPA] National Institutes of Environmental Health Sciences [NIEHS] National Toxicology Program [NTP] U.S. Food and Drug Administration [FDA] Androgen receptor (AR), a nuclear hormone receptor, plays a critical role in AR-dependent prostate cancer and other androgen related diseases. […]
Inconclusive results are not listed. The source made the active and inactive calls. The call rests on the fitted dose curve; in most records, active means well fitted inhibition curve with a large enough effect in the signal ratio in the repeat runs (not every such curve was filed as active); inconclusive means weak or mixed curves, or effect the other way; inactive means no such curve, though single readings can be large or run the other way; the % refers to the signal ratio.
Answer with one of the outcomes given here: class 1 for active, class 0 for inactive

O=c1oc2ccccc2c(O)c1Cc1c(O)c2ccccc2oc1=O    class 0

Req: I would be grateful if you could indicate the recorded call for CC(C)(C)OO .
Resp: class 0

Req: Now this one: CC(C)N1C(=O)N(c2ccccc2)CSC1=NC(C)(C)C
Resp: class 0

----------
target: Androgen receptor (Homo sapiens); assay: qHTS assay to identify small molecule antagonists of the androgen receptor (AR) signaling pathway using the MDA cell line in the presence of 0.5 nM R1881 (AID 1259243); conditions: MDA-kb2 MMTV-luciferase, R1881 0.5 nM, 16 h; series mostly up to 92.4 µM; further: nearly all actives have a fitted effect of over 50% in size
Results filed as inconclusive are left out. The source made the active and inactive calls. The call rests on the fitted dose curve; in most records, active means well fitted inhibition curve with a large enough effect in the repeat runs; inconclusive means weak or mixed curves; inactive means no such curve, though single readings can be large or run the other way.
Answer with one of the outcomes given here: YES = active, NO = inactive

For orientation, consider the following solved cases.
Cc1ccc(CCl)cc1    NO
C[As+](C)(C)CC(=O)[O-]    NO
C[C@H]1O[C@@H](O[C@H]2[C@@H](O)C[C@H](O[C@H]3[C@@H](O)C[C@H](O[C@H]4CC[C@@]5(C)[C@H](CC[C@@H]6[C@@H]5CC[C@]5(C)[C@@H](C7=CC(=O)OC7)CC[C@]65O)C4)O[C@@H]3C)O[C@@H]2C)C[C@H](O)[C@@H]1O    NO
[CH3][Hg][Cl]    YES
CCc1ccccc1C    NO
COc1ccc(/C(=C/C(=O)N2CCOCC2)c2ccc(Cl)cc2)cc1OC    YES
ClC1=C(Cl)[C@]2(Cl)[C@@H]3[C@@H](Cl)[C@@H](Cl)C[C@@H]3[C@@]1(Cl)C2(Cl)Cl    NO
COP(=S)(OC)Oc1cc(Cl)c(Br)cc1Cl    YES
O=[N+]([O-])c1cc(Cl)ccc1Cl    NO
CNC(C)Cc1ccc2c(c1)OCO2 (centres undefined)    NO

Req: I would be grateful if you could indicate the recorded call for COP(=O)(CCC(=O)NCO)OC .
Resp: NO

Req: Now this one: CC(=O)/C=C/c1ccc2c(c1)OCO2
Resp: YES

Req: Now this one: FC(Cl)(Cl)Cl
Resp: NO

Req: Now this one: Nc1ccc([N+](=O)[O-])cc1Cl
Resp: YES

Req: Now this one: ClC1=C(Cl)[C@]2(Cl)[C@@H]3[C@@H](Cl)[C@H](Cl)C[C@@H]3[C@@]1(Cl)C2(Cl)Cl
Resp: NO

Req: Now this one: CCOP(=O)(NC(C)C)Oc1ccc(SC)c(C)c1 (centres undefined)
Resp: YES

Req: Now this one: COc1cccc2c1C(=O)c1c(O)c3c(c(O)c1C2=O)C[C@@](O)(C(=O)CO)CC3OC1CC(N2CCOC(OC)C2)C(O)C(C)O1 (some centres undefined)
Resp: YES

Req: Now this one: C[C@@H]1CC[C@@]2(OC1)O[C@H]1[C@@H](O)[C@H]3[C@@H]4CC[C@H]5C[C@@H](O[C@@H]6O[C@H](CO)[C@H](O[C@@H]7O[C@H](CO)[C@@H](O)[C@H](O[C@@H]8OC[C@@H](O)[C@H](O)[C@H]8O)[C@H]7O[C@@H]7O[C@H](CO)[C@@H](O)[C@H](O[C@@H]8O[C@H](CO)[C@@H](O)[C@H](O)[C@H]8O)[C@H]7O)[C@H](O)[C@H]6O)[C@H](O)C[C@]5(C)[C@H]4CC[C@]3(C)[C@H]1[C@@H]2C
Resp: YES

Req: Now this one: CC(C)N1C(=O)N(c2ccccc2)CSC1=NC(C)(C)C
Resp: YES

meta.source: PubChem BioAssay (Tox21)
